# measured-target: 72 kDa type IV collagenase (Homo sapiens, UniProt P08253)
# Sequence (P08253 whole entry): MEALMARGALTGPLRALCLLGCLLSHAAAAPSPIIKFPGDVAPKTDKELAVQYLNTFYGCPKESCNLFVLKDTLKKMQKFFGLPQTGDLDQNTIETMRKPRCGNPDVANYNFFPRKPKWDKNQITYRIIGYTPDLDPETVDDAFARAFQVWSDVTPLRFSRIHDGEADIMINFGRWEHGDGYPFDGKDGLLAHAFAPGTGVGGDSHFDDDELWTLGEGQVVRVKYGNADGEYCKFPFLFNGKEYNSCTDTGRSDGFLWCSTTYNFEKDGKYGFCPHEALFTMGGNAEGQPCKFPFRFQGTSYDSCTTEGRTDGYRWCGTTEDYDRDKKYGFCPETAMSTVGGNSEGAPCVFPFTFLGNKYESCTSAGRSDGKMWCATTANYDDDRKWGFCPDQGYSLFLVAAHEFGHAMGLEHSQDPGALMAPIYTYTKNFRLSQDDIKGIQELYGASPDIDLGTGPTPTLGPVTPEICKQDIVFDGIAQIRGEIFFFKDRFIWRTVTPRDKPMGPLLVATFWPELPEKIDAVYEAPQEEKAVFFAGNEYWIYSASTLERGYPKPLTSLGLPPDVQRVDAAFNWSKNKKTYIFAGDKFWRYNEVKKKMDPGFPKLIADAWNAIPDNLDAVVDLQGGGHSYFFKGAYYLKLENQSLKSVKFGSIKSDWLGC
# assay-text: Inhibition of human MMP2 measured at 5 mins interval for 1 hr by fluorescence method
observation-type: IC50 (nM)
A number alone suffices; assume nM.

[in] Return IC50 (reported value) for this molecule: CCCCCC(=O)N1CC(F)(F)C[C@@H]1C(=O)N(C)[C@H](C(=O)N[C@@H](CCNC(=O)c1ccccc1)C(=O)NO)[C@@H](C)CC
[out] 656

----------
# measured-target: Matrix metalloproteinase-14 (Homo sapiens)
# assay-text: Inhibition of MT1-MMP catalytic domain (unknown origin) expressed in Escherichia coli using 7-methoxycoumarin-4-yl)acetyl-Pro-Leu-Gly-Leu-(3-[2,4-dinitrophenyl]-L-2,3-diaminopropionyl)-Ala-Arg-NH2 as substrate incubated for 30 mins by fluorescence method
observation-type: IC50

[in] Return IC50 (reported value) for this compound: CCCC(C)NC(=O)c1ccc(Cl)c(Cl)c1 (stereo unspecified)
[out] > 100 µM

----------
# measured-target: Macrophage metalloelastase (Homo sapiens)
# Sequence (P39900 whole entry): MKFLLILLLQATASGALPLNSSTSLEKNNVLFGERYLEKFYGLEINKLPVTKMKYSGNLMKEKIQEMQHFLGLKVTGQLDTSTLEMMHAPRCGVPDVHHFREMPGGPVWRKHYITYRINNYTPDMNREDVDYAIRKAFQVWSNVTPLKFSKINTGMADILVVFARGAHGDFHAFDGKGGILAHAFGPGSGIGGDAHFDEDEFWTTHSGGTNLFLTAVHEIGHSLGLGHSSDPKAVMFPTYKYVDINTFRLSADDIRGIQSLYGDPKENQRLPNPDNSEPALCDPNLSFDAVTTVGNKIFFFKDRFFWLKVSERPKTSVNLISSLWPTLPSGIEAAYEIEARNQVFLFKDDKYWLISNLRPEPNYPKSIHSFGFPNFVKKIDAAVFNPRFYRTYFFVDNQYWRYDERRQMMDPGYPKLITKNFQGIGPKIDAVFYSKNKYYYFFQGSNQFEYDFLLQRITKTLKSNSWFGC
# assay-text: Inhibition of recombinant human MMP12 using Mca-Pro-Leu-Gly-Leu-Dpa-Ala-Arg-NH2 as substrate by […] method
observation-type: IC50 (nM)
The response must be a number in nM with no trailing unit.

[in] State its IC50: NC(=O)[C@H](CCC(=O)O)NC(=O)c1ccc(-c2cc(-c3ccccc3)cs2)cc1
[out] 2.5
